Every entry's value here was drawn from patent EP0450097B1.

assay.target: V₂ receptor (Rattus norvegicus)
Construct: Using rat kidney plasma membrane preparations
assay.comment: V₂ receptor binding assay ([³H]-Arg-vasopressin, rat kidney plasma membrane preparations)
study.conditions: 4°C for 3 hours
Procedure: Using rat kidney plasma membrane preparations prepared according to O. Hechter's method [cf: J. Bio. […] The amount of [³H]-vasopressin combined with the membrane is measured by liquid scintillation counter and the rate of the inhibitory effect of the test compound is estimated according to the following equation. […] The results are expressed as IC₅₀ values, which is the concentration of the test compound required to achieve the inhibitory effect in the rate of 50 %.
pIC50: −log10 of the molar value.

| compound | pIC50 |
| --- | --- |
| Nc1cccc(C(=O)Nc2ccc(C(=O)N3CCCCc4ccccc43)cc2)c1 | 7.30 |
| CC(=O)ON=C1CCCN(C(=O)c2ccc(NC(=O)c3ccccc3Cl)cc2)c2ccccc21 | 6.85 |
| Cc1ccccc1C(=O)Nc1ccc(C(=O)N2CCN(C)c3ccccc32)cc1 | 6.40 |
| CN(C)C1CCCN(C(=O)c2ccc(NC(=O)c3ccccc3Cl)cc2)c2ccc(Cl)cc21 (centres unmarked) | 7.62 |
| CN1CCN(C(=O)c2ccc(NC(=O)c3cc(Cl)cc(Cl)c3)cc2Cl)c2ccccc2C1 | 7.62 |
| Cc1cccc(C(=O)Nc2ccc(C(=O)N3CCN(C)c4ccccc43)cc2)c1C | 6.49 |
| O=C(Nc1ccc(C(=O)N2CCCc3ccccc32)cc1)C1CCCCCC1 | 6.89 |
| CNC1CCCN(C(=O)c2ccc(NC(=O)c3ccccc3Cl)cc2)c2ccc(Cl)cc21 (centres unmarked) | 7.96 |
| C#CCN(CC(=O)Nc1ccc(C(=O)N2CCCCc3ccccc32)cc1)c1ccccc1 | 8.15 |
| O=C(Nc1ccc(C(=O)N2CCCc3ccccc32)cc1)c1cc(Cl)cc(Cl)c1 | 7.09 |
| Cc1ccccc1C(=O)Nc1ccc(C(=O)N2CCCC(OC(=O)CN(C)C)c3ccccc32)cc1 (centres unmarked) | 7.74 |
| COc1cc(NC(=O)c2ccccc2C)ccc1C(=O)N1CCCC(N(C)C)c2ccccc21 (centres unmarked) | 6.59 |
| CN(C)C1CCCN(C(=O)c2ccc(NC(=O)c3ccccc3Cl)cc2Cl)c2ccccc21 (centres unmarked) | 7.64 |
| COc1cc(C(=O)N2CCN(C)Cc3ccccc32)ccc1NC(=O)c1cc(Cl)cc(Cl)c1 | 6.39 |
| CN1CCCN(C(=O)c2ccc(NC(=O)c3cc(Cl)cc(Cl)c3)cc2)c2ccccc21 | 7.46 |
| CN1CCN(C(=O)c2ccc(NC(=O)c3cc(Cl)cc(Cl)c3)cc2)c2ccccc21 | 5.80 |
| CN1CCCN(C(=O)c2ccc(NC(=O)c3ccccc3)cc2)c2ccccc21 | 7.34 |

====

# reported pIC50; entries follow
assay.target: V₁ receptor (Rattus norvegicus)
Construct: Using rat liver plasma membrane preparations
Sequence (P30560 whole entry): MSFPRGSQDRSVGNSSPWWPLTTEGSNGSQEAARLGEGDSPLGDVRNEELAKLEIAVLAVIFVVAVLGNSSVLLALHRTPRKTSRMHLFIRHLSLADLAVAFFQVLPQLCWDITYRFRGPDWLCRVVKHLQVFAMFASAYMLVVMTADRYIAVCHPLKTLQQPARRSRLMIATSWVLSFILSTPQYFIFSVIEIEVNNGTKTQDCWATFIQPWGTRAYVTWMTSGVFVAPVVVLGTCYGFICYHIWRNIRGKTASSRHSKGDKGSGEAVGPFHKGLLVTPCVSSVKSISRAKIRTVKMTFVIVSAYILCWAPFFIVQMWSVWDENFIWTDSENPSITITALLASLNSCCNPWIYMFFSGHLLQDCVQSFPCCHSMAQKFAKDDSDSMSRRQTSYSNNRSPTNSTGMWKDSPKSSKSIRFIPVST
assay.comment: V₁ receptor binding assay ([³H]-Arg-vasopressin, rat liver plasma membrane preparations)
study.conditions: 37°C for 10 minutes
pIC50: −log10 of the molar value.
assay.readout: pIC50

| molecule | assay.target | assay.readout | reported.measurement |
| --- | --- | --- | --- |
| Cc1ccccc1C(=O)Nc1ccc(C(=O)N2CCCC(OCC(=O)N3CCOCC3)c3ccccc32)cc1 (stereo not drawn) [compound 278] | V₁ receptor (Rattus norvegicus) | pIC50 | 6.52 |
| CCN(CC)CCOc1ccccc1C(=O)Nc1ccc(C(=O)N2CCCCc3ccccc32)cc1 [compound 71] | V₁ receptor (Rattus norvegicus) | pIC50 | 6.74 |
| C=CCN(CC(=O)Nc1ccc(C(=O)N2CCCCc3ccccc32)cc1)c1ccccc1 [compound 115] | V₁ receptor (Rattus norvegicus) | pIC50 | 7.92 |
| Cc1ccccc1C(=O)Nc1ccc(C(=O)N2CCCC(OCC(=O)N3CCN(C)CC3)c3ccccc32)cc1 (stereo not drawn) [compound 277] | V₁ receptor (Rattus norvegicus) | pIC50 | 6.64 |
| Cc1ccccc1C(=O)Nc1ccc(C(=O)N2CC(C)Cc3ccccc32)cc1 (stereo not drawn) [compound 46] | V₁ receptor (Rattus norvegicus) | pIC50 | 6.40 |
| O=C(Nc1ccc(C(=O)N2CCCCc3ccccc32)cc1)c1cccc(O)c1 [compound 69] | V₁ receptor (Rattus norvegicus) | pIC50 | 7.18 |
| O=C(Nc1ccc(C(=O)N2CCCC(NC3CC3)c3cc(Cl)ccc32)cc1)c1ccccc1Cl (stereo not drawn) [compound 311] | V₁ receptor (Rattus norvegicus) | pIC50 | 7.11 |
| O=C(Nc1ccc(C(=O)N2CCCCc3ccccc32)cc1)c1ccccc1OCCCCO [compound 120] | V₁ receptor (Rattus norvegicus) | pIC50 | 6.54 |
| COc1cc(C(=O)N2CCCC(NC3CC3)c3cc(Cl)ccc32)ccc1NC(=O)c1ccccc1Cl (stereo not drawn) [compound 322] | V₁ receptor (Rattus norvegicus) | pIC50 | 7.36 |
| Cc1cccc(C(=O)Nc2ccc(C(=O)N3CCCCc4ccccc43)cc2)c1C [compound 33] | V₁ receptor (Rattus norvegicus) | pIC50 | 7.04 |
| Cc1ccccc1C(=O)Nc1ccc(C(=O)N2CCCC(OC(=O)CN(C)C)c3ccccc32)cc1 (stereo not drawn) [compound 275] | V₁ receptor (Rattus norvegicus) | pIC50 | 6.74 |
| Cc1ccccc1C(=O)Nc1ccc(C(=O)N2CCCC(OCC(=O)NCC(N)=O)c3ccccc32)cc1 (stereo not drawn) [compound 285] | V₁ receptor (Rattus norvegicus) | pIC50 | 6.74 |
| Cc1ccccc1C(=O)Nc1ccc(C(=O)N2CCC(C)C(O)c3ccccc32)cc1 (stereo not drawn) [compound 256] | V₁ receptor (Rattus norvegicus) | pIC50 | 7.31 |
| CCOc1cccc(C(=O)Nc2ccc(C(=O)N3CCCCc4ccccc43)cc2)c1 [compound 59] | V₁ receptor (Rattus norvegicus) | pIC50 | 6.51 |
| CC(=O)NCCCOC1CCCN(C(=O)c2ccc(NC(=O)c3ccccc3C)cc2)c2ccccc21 (stereo not drawn) [compound 174] | V₁ receptor (Rattus norvegicus) | pIC50 | 6.85 |
| Cc1ccccc1C(=O)Nc1ccc(C(=O)N2CCCC(NC3CC3)c3cc(Cl)ccc32)cc1 (stereo not drawn) [compound 310] | V₁ receptor (Rattus norvegicus) | pIC50 | 7.19 |
| Cc1ccccc1C(=O)Nc1ccc(C(=O)N2CCCC(OCC(=O)N3CC[S+]([O-])CC3)c3ccccc32)cc1 (stereo not drawn) [compound 281] | V₁ receptor (Rattus norvegicus) | pIC50 | 6.74 |
| CN(C)C1CCCN(C(=O)c2ccc(NC(=O)CNc3ccccc3Cl)cc2)c2ccccc21 (stereo not drawn) [compound 315] | V₁ receptor (Rattus norvegicus) | pIC50 | 6.42 |
| CN(C)C1CCCN(C(=O)c2ccc(NC(=O)c3ccccc3C(F)(F)F)cc2)c2ccccc21 (stereo not drawn) [compound 188] | V₁ receptor (Rattus norvegicus) | pIC50 | 6.33 |
| CNC1CCCN(C(=O)c2ccc(NC(=O)c3ccccc3Cl)cc2)c2ccc(Cl)cc21 (stereo not drawn) [compound 302] | V₁ receptor (Rattus norvegicus) | pIC50 | 7.15 |
| O=C(Nc1ccc(C(=O)N2CCCCc3ccccc32)cc1)c1ccccc1Br [compound 56] | V₁ receptor (Rattus norvegicus) | pIC50 | 7.60 |
| COc1cc(OC)cc(C(=O)Nc2ccc(C(=O)N3CCCCc4ccccc43)cc2)c1 [compound 60] | V₁ receptor (Rattus norvegicus) | pIC50 | 6.74 |
| Cc1ccccc1C(=O)Nc1ccc(C(=O)N2CCC(=O)Cc3ccccc32)cc1 [compound 193] | V₁ receptor (Rattus norvegicus) | pIC50 | 6.77 |
| Cc1ccccc1C(=O)Nc1ccc(C(=O)N2CCCC(OCC(=O)N(C)CCO)c3ccccc32)cc1 (stereo not drawn) [compound 293] | V₁ receptor (Rattus norvegicus) | pIC50 | 6.72 |

====

assay.target: V₂ receptor (Rattus norvegicus, UniProt Q00788)
Construct: Using rat kidney plasma membrane preparations
Sequence (Q00788 whole entry): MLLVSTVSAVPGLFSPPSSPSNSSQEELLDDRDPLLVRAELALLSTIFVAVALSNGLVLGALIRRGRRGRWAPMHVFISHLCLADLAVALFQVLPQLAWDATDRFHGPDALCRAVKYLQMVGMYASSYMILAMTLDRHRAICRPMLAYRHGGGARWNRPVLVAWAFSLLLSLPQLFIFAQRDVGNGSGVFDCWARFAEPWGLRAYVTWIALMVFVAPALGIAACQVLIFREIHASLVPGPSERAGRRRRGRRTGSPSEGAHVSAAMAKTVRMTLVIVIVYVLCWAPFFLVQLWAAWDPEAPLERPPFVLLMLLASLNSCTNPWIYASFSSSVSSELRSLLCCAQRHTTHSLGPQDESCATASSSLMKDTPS
assay.comment: V₂ receptor binding assay ([³H]-Arg-vasopressin, rat kidney plasma membrane preparations)
study.conditions: 4°C for 3 hours
pIC50: −log10 of the molar value.
Assign yes to entries whose pIC50 meets or exceeds 7; assign no to the rest.

| compound | group.label |
| --- | --- |
| CC(=O)N(C)C1CCCN(C(=O)c2ccc(NC(=O)c3cc(Cl)cc(Cl)c3)cc2)c2ccccc21 (stereo not shown) | yes |
| CN(C)C1CCCN(C(=O)c2ccc(NC(=O)c3ccccc3Cl)cc2F)c2ccccc21 (stereo not shown) | yes |
| O=C(Nc1ccc(C(=O)N2CCCc3ccccc32)cc1)c1ccccc1[N+](=O)[O-] | no |
| Cc1ccccc1C(=O)Nc1ccc(C(=O)N2CCCC(NN)c3ccccc32)cc1 (stereo not shown) | no |
| Cc1cccc(C(=O)Nc2ccc(C(=O)N3CC(C)Cc4ccccc43)cc2)c1C (stereo not shown) | yes |
| O=C(Nc1ccc(C(=O)N2CCCCc3ccccc32)cc1)c1ccccc1OCCCCCCN1CCOCC1 | no |
| Cc1ccccc1C(=O)Nc1ccc(C(=O)N2CCCC(OCC(=O)N3CCOCC3)c3ccccc32)cc1 (stereo not shown) | yes |
| O=C(Nc1cc(Cl)cc(Cl)c1)c1ccc(C(=O)N2CCCc3ccccc32)cc1 | no |
| Cc1cccc(C(=O)Nc2ccc(C(=O)N3CC(N4CCCC4)Cc4ccccc43)cc2)c1C (stereo not shown) | no |
| CC(=O)NCC1CCCN(C(=O)c2ccc(NC(=O)c3ccccc3C)cc2)c2ccccc21 (stereo not shown) | yes |
| O=C(Nc1ccc(C(=O)N2CCOCc3ccccc32)cc1)c1cc(Cl)cc(Cl)c1 | no |
| CNC1CCCN(C(=O)c2ccc(NC(=O)c3ccccc3C)c(OC)c2)c2ccc(Cl)cc21 (stereo not shown) | yes |
| Cc1ccccc1C(=O)Nc1ccc(C(=O)N2CCCC(O)(CO)c3ccccc32)c(Cl)c1 (stereo not shown) | yes |
| Cc1ccccc1C(=O)Nc1ccc(C(=O)N2CCCC(CN)c3ccccc32)cc1 (stereo not shown) | yes |
| COc1cc(C(=O)N2CCCCc3ccccc32)ccc1NC(=O)C1CCCCC1 | yes |
| Cc1ccccc1C(=O)Nc1ccc(C(=O)N2CCC(CN(C)C)c3ccccc32)cc1 (stereo not shown) | yes |
| Cc1ccccc1C(=O)Nc1ccc(C(=O)N2CCC(=O)Cc3ccccc32)cc1 | yes |
| Cc1ccccc1C(=O)Nc1ccc(C(=O)N2CCCC(C)(O)c3ccccc32)cc1 (stereo not shown) | yes |
| CN1CCN(C(=O)c2ccc(NC(=O)C3CCCCC3)cc2)c2ccccc2C1 | no |
| Cc1ccccc1C(=O)Nc1ccc(C(=O)N2CCCC(OCC(=O)N3CCN(C)CC3)c3ccccc32)cc1 (stereo not shown) | yes |
